tested on: ten selected renal cancer cell lines; assay: In vitro 2D assay, CellTiter-Blue Cell Viability Assay, whole panel; assay type: cell-based, human; settings: Homo sapiens, geometric mean of ten cell lines, 96 h treatment, read-out: Absolute IC50, geometric mean
parameter: pIC50
One number for each entry, as −log10 of the molar value.

// O=C(c1ccccc1)c1ccc2n1CCC2C(=O)O (racemic) : pIC50 value = 2.49

---

test system: RXF 486L; test: In vitro 2D assay, CellTiter-Blue Cell Viability Assay; type: cell-based; conditions: Homo sapiens, 96 h treatment, read-out: Relative IC50
parameter: IC50 (mM)
Give bare numbers, in mM.

Note to self: IC50 recorded for O=C(c1ccccc1)c1ccc2n1CCC2C(=O)O (racemic) was 3.29

---

system: RXF Caki-1; experiment: In vitro 2D assay, CellTiter-Blue Cell Viability Assay; assay type: cell-based; settings: Homo sapiens; Caki-1, 2D, 96 h treatment; read-out: Absolute IC50
parameter: IC50 (µM)
Numbers only, in µM.

IC50 reading for O=C(c1ccccc1)c1ccc2n1CCC2C(=O)O (racemic) [Ketorolac] : 2790

---

test system: RXF 1781L; test: In vitro 3D assay, clonogenic assay (colony formation in semi-solid medium); format: cell-based; conditions: Homo sapiens, 3D colony formation, continuous exposure 8 to 13 days, read-out: Relative IC50
parameter: pIC50
Answers are plain numbers, as −log10 of the molar value.

Short answer for O=C(c1ccccc1)c1ccc2n1CCC2C(=O)O (racemic) : pIC50 was 2.69

---

test system: RXF 393L; test: In vitro 3D assay, clonogenic assay (colony formation in semi-solid medium); format: cell-based; settings: Homo sapiens, 3D colony formation, continuous exposure 8 to 13 days, read-out: Absolute IC50
parameter: IC50 (µM)
One number for each entry, in µM.

Field IC50 (entry O=C(c1ccccc1)c1ccc2n1CCC2C(=O)O (racemic) [Ketorolac] ) reads 2830

---

test system: RXF 1220L; experiment: In vitro 2D assay, CellTiter-Blue Cell Viability Assay; type: cell-based; details: Homo sapiens, 96 h treatment, read-out: Relative IC50
parameter: pIC50
One number for each entry, as −log10 of the molar value.

So, O=C(c1ccccc1)c1ccc2n1CCC2C(=O)O (racemic) [Ketorolac] ? Its pIC50 was 2.27

---

test system: RXF 1183L; assay: In vitro 3D assay, clonogenic assay (colony formation in semi-solid medium); type: cell-based; conditions: Homo sapiens, 3D colony formation, continuous exposure 8 to 13 days, read-out: Relative IC50
parameter: IC50 (µM)
Give bare numbers, in µM.

Input O=C(c1ccccc1)c1ccc2n1CCC2C(=O)O (racemic) . Output IC50: 1490

---

system: A-498 cells; test: In vitro 3D assay, clonogenic assay (colony formation in semi-solid medium); type: cell-based; conditions: Homo sapiens, A498; A-498, 3D colony formation, continuous exposure 8 to 13 days; read-out: Absolute IC50
parameter: pIC50
One number for each entry, as −log10 of the molar value.

GET /value?item= O=C(c1ccccc1)c1ccc2n1CCC2C(=O)O (racemic) [Ketorolac] &field=pIC50 returns 3.55

---

System: ACHN
Experiment: In vitro 3D assay, clonogenic assay (colony formation in semi-solid medium)
Assay type: cell-based
Conditions: Homo sapiens, 3D colony formation, continuous exposure 8 to 13 days, read-out: Relative IC50
Procedure: Ketorolac was characterized for its ability to inhibit anchorage independent growth and ex vivo colony formation of tumor cells in semi-solid medium. The compound was tested against 10 human tumor xenograft-derived cell suspensions or tumor cell lines of renal cancer. Cell lines were routinely passaged one or twice weekly. […] The percentage of viable cells was determined in a Neubauer-hemocytometer using trypan blue exclusion. […]
parameter: pIC50
One number for each entry, as −log10 of the molar value.

Entry O=C(c1ccccc1)c1ccc2n1CCC2C(=O)O (racemic) — recorded pIC50 = 2.49

---

test system: A-498 cells; test: In vitro 3D assay, clonogenic assay (colony formation in semi-solid medium); format: cell-based; conditions: Homo sapiens, A498; A-498, 3D colony formation, continuous exposure 8 to 13 days; read-out: Relative IC50
parameter: IC50 (µM)
Numbers only, in µM.

Lab note: measured IC50 of O=C(c1ccccc1)c1ccc2n1CCC2C(=O)O (racemic) was 279

---

system: RXF 1781L; assay: In vitro 3D assay, clonogenic assay (colony formation in semi-solid medium); type: cell-based; details: Homo sapiens, 3D colony formation, continuous exposure 8 to 13 days, read-out: Absolute IC50
parameter: pIC50
Give bare numbers, as −log10 of the molar value.

Noted for O=C(c1ccccc1)c1ccc2n1CCC2C(=O)O (racemic) [Ketorolac] : its pIC50 reads 2.72
